biological target: human TLR7 (Homo sapiens, UniProt Q9NYK1); construct: host or cells: HEK-Blue cells; assay: TLR7 inhibition reporter assay (HEK-Blue SEAP); assay type: cell-based; conditions: HEK-Blue cells overexpressing human TLR7, stimulated with gardiquimod 7.5 μM, 22 hour incubation
Response field label: string, one of TRUE (IC50 strictly below 6 nM) or FALSE.

[[record]]
molecule = "Cc1c(-c2[nH]c3ccc(OC4CCN(C)CC4)cc3c2C(C)C)cn2cnnc2c1C"
assigned_class = "TRUE"

[[record]]
molecule = "COc1ccc(-c2[nH]c3ccc(OCC(=O)N4CCCC(CCN)C4)cc3c2C(C)C)cc1OC (centres unmarked)"
assigned_class = "FALSE"

[[record]]
molecule = "Cc1c(-c2[nH]c3ccc(OC4CCN(C(C)C)CC4)cc3c2C(C)C)cn2cnnc2c1C"
assigned_class = "FALSE"

[[record]]
molecule = "Cc1cc(-c2[nH]c3ccc(OCC(=O)N4CCC(CN)CC4)cc3c2C(C)C)ccn1"
assigned_class = "FALSE"


Ask | Is IC50 strictly under 6 nM for the entry "Cc1c(-c2[nH]c3ccc(OC4CCN(C(C)C)CC4)cc3c2C(C)C)cn(C)c(=O)c1Cl" ?
Reply | FALSE

* * *

Listed molecules paired with reported IC50
molecular target: human TLR8 (Homo sapiens, UniProt Q9NR97); assay: TLR8 inhibition reporter assay (HEK-Blue SEAP); conditions: HEK-Blue cells overexpressing human TLR8, stimulated with R848 15.9 μM, 22 hour incubation
Sequence (Q9NR97 27-1041): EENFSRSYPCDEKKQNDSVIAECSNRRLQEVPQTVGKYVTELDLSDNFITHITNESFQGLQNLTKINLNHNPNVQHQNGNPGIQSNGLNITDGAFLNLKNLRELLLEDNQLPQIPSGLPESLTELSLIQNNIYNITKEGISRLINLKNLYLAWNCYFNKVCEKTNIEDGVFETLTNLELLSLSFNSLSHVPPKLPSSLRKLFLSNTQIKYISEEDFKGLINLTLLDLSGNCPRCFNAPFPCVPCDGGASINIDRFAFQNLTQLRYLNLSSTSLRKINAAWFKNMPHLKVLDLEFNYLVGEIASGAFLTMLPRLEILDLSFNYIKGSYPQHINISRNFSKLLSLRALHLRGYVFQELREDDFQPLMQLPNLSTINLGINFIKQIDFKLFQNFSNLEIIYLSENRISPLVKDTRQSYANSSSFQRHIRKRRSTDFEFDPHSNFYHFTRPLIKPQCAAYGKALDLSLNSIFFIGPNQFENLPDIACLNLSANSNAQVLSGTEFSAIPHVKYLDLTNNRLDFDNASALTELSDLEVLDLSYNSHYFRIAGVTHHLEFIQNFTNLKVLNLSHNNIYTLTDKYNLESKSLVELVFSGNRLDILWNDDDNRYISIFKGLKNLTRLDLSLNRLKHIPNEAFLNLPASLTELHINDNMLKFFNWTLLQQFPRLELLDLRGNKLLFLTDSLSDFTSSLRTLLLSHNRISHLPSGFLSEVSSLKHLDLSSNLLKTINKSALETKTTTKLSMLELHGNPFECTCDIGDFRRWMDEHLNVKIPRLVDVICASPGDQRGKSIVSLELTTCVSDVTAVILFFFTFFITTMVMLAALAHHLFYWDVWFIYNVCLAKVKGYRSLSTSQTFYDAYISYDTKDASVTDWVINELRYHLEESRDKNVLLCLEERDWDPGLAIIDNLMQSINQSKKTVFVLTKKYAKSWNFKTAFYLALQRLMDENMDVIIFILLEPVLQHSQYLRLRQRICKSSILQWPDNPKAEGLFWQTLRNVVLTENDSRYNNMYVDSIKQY
Express it in nM; write the number only.

See these solved cases before continuing.
[[record]]
entry_smiles = "Cc1cc(-c2[nH]c3ccc(OCC4CN(CC(C)(C)O)C4)cc3c2C(C)C)cn2ncnc12"
readout_number = 3.5

[[record]]
entry_smiles = "COc1ccc(-c2[nH]c3ccc(OCC(=O)N[C@@H]4CCCNC4)cc3c2C(C)C)cc1OC"
readout_number = 9.1

[[record]]
entry_smiles = "Cc1cc(-c2[nH]c3ccc(OCCN4CCC(F)(F)CC4)cc3c2C(C)C)cn2ncnc12"
readout_number = 11

[[record]]
entry_smiles = "Cc1cc(-c2[nH]c3ccc(O[C@H]4CCCN(C5CCOCC5)C4)cc3c2C(C)C)cn(C)c1=O"
readout_number = 10.8

[[record]]
entry_smiles = "Cc1cc(-c2[nH]c3ccc(OC4CCN(CC(C)C)CC4)cc3c2C(C)C)cn2ncnc12"
readout_number = 1.4


Ask | // query IC50 value for entry "Cc1cc(-c2[nH]c3ccc(OC4CCNCC4)cc3c2C(C)C)cn2ncnc12"
Reply | 1.6

Ask | // query IC50 value for entry "Cc1cc(-c2[nH]c3ccc(O[C@H]4CCCN(C(=O)CN(C)C)C4)cc3c2C(C)C)cn(C)c1=O"
Reply | 16.5

* * *

Target: UniProtKB Q9NYK1
Sequence (Q9NYK1 27-1049): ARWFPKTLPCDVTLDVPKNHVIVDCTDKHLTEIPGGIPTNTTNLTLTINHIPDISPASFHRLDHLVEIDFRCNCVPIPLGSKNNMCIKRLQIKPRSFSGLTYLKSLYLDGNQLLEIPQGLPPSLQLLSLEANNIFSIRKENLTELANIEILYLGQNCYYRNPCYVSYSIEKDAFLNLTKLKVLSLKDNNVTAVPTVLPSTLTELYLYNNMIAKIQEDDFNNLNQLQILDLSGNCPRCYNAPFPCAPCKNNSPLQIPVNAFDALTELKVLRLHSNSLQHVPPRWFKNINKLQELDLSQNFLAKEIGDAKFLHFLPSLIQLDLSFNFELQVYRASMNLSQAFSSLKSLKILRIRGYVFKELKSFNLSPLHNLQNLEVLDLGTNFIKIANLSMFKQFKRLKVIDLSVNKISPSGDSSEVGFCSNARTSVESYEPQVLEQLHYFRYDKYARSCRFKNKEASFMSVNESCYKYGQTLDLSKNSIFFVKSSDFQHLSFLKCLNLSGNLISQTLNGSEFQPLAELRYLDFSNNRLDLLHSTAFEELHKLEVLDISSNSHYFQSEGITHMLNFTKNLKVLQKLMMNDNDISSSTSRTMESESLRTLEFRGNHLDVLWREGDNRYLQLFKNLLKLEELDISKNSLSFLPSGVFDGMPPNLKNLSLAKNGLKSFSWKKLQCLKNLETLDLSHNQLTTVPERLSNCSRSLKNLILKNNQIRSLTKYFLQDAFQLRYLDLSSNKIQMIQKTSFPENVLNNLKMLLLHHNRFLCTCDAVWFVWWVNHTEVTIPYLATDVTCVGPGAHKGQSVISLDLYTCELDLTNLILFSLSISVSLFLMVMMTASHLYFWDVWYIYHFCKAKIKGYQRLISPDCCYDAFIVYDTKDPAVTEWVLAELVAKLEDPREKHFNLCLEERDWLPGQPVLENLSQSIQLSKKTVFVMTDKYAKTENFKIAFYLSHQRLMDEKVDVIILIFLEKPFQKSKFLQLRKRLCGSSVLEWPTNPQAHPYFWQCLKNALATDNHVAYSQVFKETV
Assay: TLR7 inhibition reporter assay (HEK-Blue SEAP)
Conditions: HEK-Blue cells overexpressing human TLR7, stimulated with gardiquimod 7.5 μM, 22 hour incubation
Field: class. Source value: IC50. Ranges: 0: < 4 nM; 1: ≥ 4 nM and < 300 nM; 2: ≥ 300 nM

Example entries begin here.
[[record]]
compound = "COc1ccc(-c2[nH]c3ccc(OCCN4CCOCC4)cc3c2C(C)C)cc1OC"
assigned_class = 2

[[record]]
compound = "Cc1cc(-c2[nH]c3ccc(OCC4CN(C(=O)CN(C)C)C4)cc3c2C(C)C)cn2ncnc12"
assigned_class = 0

[[record]]
compound = "Cc1cc(-c2[nH]c3ccc(O[C@H]4CCCN(C)C4)cc3c2C(C)C)cn2ncnc12"
assigned_class = 0

[[record]]
compound = "Cc1cc(-c2[nH]c3ccc(O[C@@H]4CCN(C)C4)cc3c2C(C)C)ccn1"
assigned_class = 1


Ask | Assign a category based on measured IC50 for "CCc1c(-c2ccnc(C)c2)[nH]c2ccc(O[C@H]3CCNC3)cc12" and give only the class name.
Reply | 2

Ask | Assign a category based on measured IC50 for "COc1ccc(-c2[nH]c3ccc(OCC(=O)NCC4(O)CCN(C)CC4)cc3c2C(C)C)cc1OC" and give only the class name.
Reply | 2

Ask | Assign a category based on measured IC50 for "Cc1cc(-c2[nH]c3ccc(OCC4CCNCC4)cc3c2C(C)C)cn2ncnc12" and give only the class name.
Reply | 0

Ask | Assign a category based on measured IC50 for Cc1cc(-c2[nH]c3ccc(OCC(=O)N4CCCCC4C4CCNCC4)cc3c2C(C)C)ccn1 (centres unmarked) and give only the class name.
Reply | 2
